target: T1, HLA-A*24:02 (human); assay: UV-ligand exchange, anti-b2m ELISA; exchange yield grade (+ >10%, ++ >20%, +++ >50, ++++ >75%)
T1 construct: Peptide-receptive MHC monomer made by UV cleavage of a UV-sensitive peptide
What peptide exchange yield was measured for each of the following?

Note to self: peptide exchange yield recorded for TYLTGRQF was 20 to 50%

RQYLAINQI has a reported peptide exchange yield of 10 to 20%

peptide exchange yield for PYASLASELF is > 75%

peptide exchange yield reading for KLYGMPTDFGF : 20 to 50%

peptide exchange yield in this record for TFQDKTLNF : 50 to 75%

// field: peptide exchange yield; key: KYLSIPAVF ; value = > 75%

Short answer for VFLNQIYTQL : peptide exchange yield was 20 to 50%

Input SYIEKVRFL . Output peptide exchange yield: 50 to 75%

Recorded peptide exchange yield (binder KYLSIPTVF ): > 75%

Data provenance: patent US20180291082A1
